# Tested on: ORL-214
# testDetails: IC50 (cell viability, 72 h) (ln(µM))
Kindly apply the following: T if IC50 (ln) is less than -4, F in every other case.

compound	classLabel
CC[C@]1(O)C[C@@H]2CN(CCc3c([nH]c4ccccc34)[C@@](C(=O)OC)(c3cc4c(cc3OC)N(C)[C@H]3[C@@](O)(C(=O)OC)[C@H](OC(C)=O)[C@]5(CC)C=CCN6CC[C@]43[C@@H]65)C2)C1 [Vinblastine]	T
Cc1cc(-c2nc(-c3ccc(OC(F)(F)F)cc3)no2)nn1Cc1ccnc(N2CCN(C3CC3)CC2)c1 [BAY-87-2243]	F
COCC[n+]1c2c(n(Cc3cnccn3)c1C)C(=O)c1ccccc1C2=O [Sepantronium bromide]	T
CC(=O)O[C@H]1C(=O)[C@@]2(C)[C@H]([C@H](OC(=O)c3ccccc3)[C@]3(O)C[C@H](OC(=O)[C@H](O)[C@@H](NC(=O)c4ccccc4)c4ccccc4)C(C)=C1C3(C)C)[C@]1(OC(C)=O)CO[C@@H]1C[C@@H]2O [Paclitaxel]	T
Cc1[nH]c2ccccc2c1CCNCc1ccc(/C=C/C(=O)NO)cc1 [Panobinostat]	F
CC(C)C[C@@H](C=O)NC(=O)[C@H](CC(C)C)NC(=O)[C@H](CC(C)C)NC(=O)OCc1ccccc1 [MG-132]	F
CC(=O)O[C@@]12CO[C@@H]1C[C@H](O)[C@@]1(C)C(=O)[C@H](O)C3=C(C)[C@@H](OC(=O)[C@H](O)[C@@H](NC(=O)OC(C)(C)C)c4ccccc4)C[C@@](O)([C@@H](OC(=O)c4ccccc4)[C@H]21)C3(C)C [Docetaxel]	T
CN(C)C/C=C/C(=O)Nc1ccc(C(=O)Nc2cccc(Nc3ncc(Cl)c(-c4c[nH]c5ccccc45)n3)c2)cc1 [THZ1]	F
C/C=C1\NC(=O)[C@H]2CSSCC/C=C/[C@H](CC(=O)N[C@H](C(C)C)C(=O)N2)OC(=O)[C@H](C(C)C)NC1=O [Romidepsin]	F
Cc1c2oc3c(C)ccc(C(=O)N[C@@H]4C(=O)N[C@H](C(C)C)C(=O)N5CCC[C@H]5C(=O)N(C)CC(=O)N(C)[C@@H](C(C)C)C(=O)O[C@@H]4C)c3nc-2c(C(=O)N[C@@H]2C(=O)N[C@H](C(C)C)C(=O)N3CCC[C@H]3C(=O)N(C)CC(=O)N(C)[C@@H](C(C)C)C(=O)O[C@@H]2C)c(N)c1=O [Dactinomycin]	T
CCc1c2c(nc3ccc(O)cc13)-c1cc3c(c(=O)n1C2)COC(=O)[C@]3(O)CC [SN-38]	T
CC[C@@]1(O)C(=O)OCc2c1cc1n(c2=O)Cc2cc3ccccc3nc2-1 [Camptothecin]	T
CCNC(=O)c1noc(-c2cc(C(C)C)c(O)cc2O)c1-c1ccc(CN2CCOCC2)cc1 [Luminespib]	T
CC[C@@]1(O)C(=O)OCc2c1cc1n(c2=O)Cc2cc3c(CN(C)C)c(O)ccc3nc2-1 [Topotecan]	F
CN[C@@H]1C[C@H]2O[C@@](C)([C@@H]1OC)n1c3ccccc3c3c4c(c5c6ccccc6n2c5c31)C(=O)NC4 [Staurosporine]	T
CC[C@@H]1C(=O)N(C)c2cnc(Nc3ccc(C(=O)NC4CCN(C)CC4)cc3OC)nc2N1C1CCCC1 [BI-2536]	F
CC[C@@H]1C(=O)N(C)c2cnc(Nc3ccc(C(=O)N[C@H]4CC[C@H](N5CCN(CC6CC6)CC5)CC4)cc3OC)nc2N1C(C)C [Volasertib]	F
CO[C@H]1C[C@@H]2CC[C@@H](C)[C@@](O)(O2)C(=O)C(=O)N2CCCC[C@H]2C(=O)O[C@H]([C@H](C)C[C@@H]2CC[C@@H](O)[C@H](OC)C2)CC(=O)[C@H](C)/C=C(\C)[C@@H](O)[C@@H](OC)C(=O)[C@H](C)C[C@H](C)/C=C/C=C/C=C/1C [Rapamycin]	T
CC(C)C[C@H](NC(=O)[C@H](Cc1ccccc1)NC(=O)c1cnccn1)B(O)O [Bortezomib]	T
